FYI, the data here is from ChEMBL document CHEMBL1124630.

# Test system: Klebsiella pneumoniae
# RUN DESCRIPTION: In vitro antibacterial activity against Klebsiella pneumoniae (A 9664)
# Assay type: functional
# SETTINGS: Klebsiella pneumoniae; read-out: MIC
READOUT: log10 MIC (log10 of the value in µg/mL)
All values: base-10 log of MIC in µg/mL.

In the examples that follow, each entry is paired with its recorded log10 MIC.
# COMPOUND, TARGET ENTITY, QUANTITATIVE READOUT
rows = [
    ("C=C(C)n1cc(C(=O)O)c(=O)c2cc(F)c(N3CCNCC3)cc21", "Klebsiella pneumoniae", -0.60),
    ("CCn1cc(C(=O)O)c(=O)c2cc(F)c(N3CCNCC3)nc21 [ENOXACIN]", "Klebsiella pneumoniae", -0.30),
    ("O=C(O)c1cn(Cc2ccccc2)c2cc(N3CCNCC3)c(F)cc2c1=O", "Klebsiella pneumoniae", -0.30),
]

Entry `O=C(O)c1cn(C2CC=CC2)c2cc(N3CCNCC3)c(F)cc2c1=O` ; log10 MIC = 0.00

Entry `CC(C)(C)n1cc(C(=O)O)c(=O)c2cc(F)c(N3CCNCC3)c(F)c21` ; log10 MIC = -0.60

Entry `CCC(C)(C)n1cc(C(=O)O)c(=O)c2cc(F)c(N3CCNCC3)cc21` ; log10 MIC = 0.00

Entry CC1CC1n1cc(C(=O)O)c(=O)c2cc(F)c(N3CCNCC3)cc21 (stereo in doubt; 13) ; log10 MIC = 0.00

Entry `CC1(n2cc(C(=O)O)c(=O)c3cc(F)c(N4CCNCC4)cc32)CCC1` ; log10 MIC = 0.30

Entry `CC(C)n1cc(C(=O)O)c(=O)c2cc(F)c(N3CCNCC3)cc21` ; log10 MIC = 0.00

Entry `O=C(O)c1cn(C2CC2)c2c(F)c(N3CCNCC3)c(F)cc2c1=O` ; log10 MIC = -1.22

###

# RUN DESCRIPTION: Lethal dose of compound in OF1-strain female swiss mice after oral administration
# Format: toxicity, organism-based
# SETTINGS: mouse, in vivo
READOUT: LD50

# MOLECULE, RESULT
measured = [
    ("CCn1cc(C(=O)O)c(=O)c2cc(F)c(N3CCNCC3)cc21 [NORFLOXACIN]", "> 2500 mg/kg"),
    ("CC(C)(C)n1cc(C(=O)O)c(=O)c2cc(F)c(N3CCNCC3)cc21", "> 2500 mg/kg"),
]

Query molecule follows.
Entry `CC(C)(C)n1cc(C(=O)O)c(=O)c2cc(F)c(N3CCNCC3)nc21` ; LD50 = > 2500 mg/kg

###

# System: Escherichia coli
# RUN DESCRIPTION: In vivo efficacy in systemic infection due to Escherichia coli (A 15119) in mice
# Format: functional
# SETTINGS: read-out: PD50
Consider the following molecules and their measured ED50 readings.
Include the unit right after the number.

# MOLECULE, RESULT
records = [
    ("O=C(O)c1cn(C2CC2)c2nc(N3CCNCC3)c(F)cc2c1=O", "0.5 mg/kg"),
]

Entry O=C(O)c1cn(C2CC2)c2cc(N3CCNCC3)c(F)cc2c1=O [CIPROFLOXACIN] ; ED50 = 0.7 mg/kg

Entry `CC(C)(C)n1cc(C(=O)O)c(=O)c2cc(F)c(N3CCNCC3)nc21` ; ED50 = 2.4 mg/kg

Entry CCn1cc(C(=O)O)c(=O)c2cc(F)c(N3CCNCC3)cc21 [NORFLOXACIN] ; ED50 = 3 mg/kg
